# measurement_target: T1, hFLT3-His fusion protein (human, UniProt P36888 27-541, limits assumed)
# T1 construct: Soluble recombinant antigen used for immunisation, ELISA, SPR and BLI binning; also called recombinant hFLT3 protein; not shown: His tag
# T1 sequence (looked up): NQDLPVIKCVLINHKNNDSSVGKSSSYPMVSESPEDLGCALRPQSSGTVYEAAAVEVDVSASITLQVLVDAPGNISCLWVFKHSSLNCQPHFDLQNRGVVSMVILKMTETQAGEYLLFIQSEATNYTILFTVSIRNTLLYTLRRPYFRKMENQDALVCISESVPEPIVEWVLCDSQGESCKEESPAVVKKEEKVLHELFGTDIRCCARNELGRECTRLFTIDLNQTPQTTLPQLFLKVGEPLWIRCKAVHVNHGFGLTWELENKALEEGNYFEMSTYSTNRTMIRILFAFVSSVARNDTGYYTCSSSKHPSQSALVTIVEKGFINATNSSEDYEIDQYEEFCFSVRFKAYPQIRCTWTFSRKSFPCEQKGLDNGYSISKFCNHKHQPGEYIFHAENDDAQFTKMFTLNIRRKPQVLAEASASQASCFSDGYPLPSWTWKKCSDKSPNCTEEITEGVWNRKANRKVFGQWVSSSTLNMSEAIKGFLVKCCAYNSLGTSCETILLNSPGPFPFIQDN
# test_name: SPR, purified murine subclone mAb, hFLT3-His
test_readout: koff (s⁻¹)
Just the number in s⁻¹, nothing appended.

Given the entry 11F4.B9 (antibody, V domains shown, Purified murine mAb from a hybridoma subclone) VH: EVQLQESGPELVKPGASVKISCKASGYSFTGYYIHWVKQGPEKSLEWIGEIIPSTGSTIYNQKFKAKATLTVDKSSSTAYLQLKSLTSEDSAVYYCERWGDYYGRDYWGQGTSVTVSS VL: DIVLTQSPASLAVSLGQRATISCRASESVDIYGNSFMHWYQQKPGQPPKLLIYRASNLESGIPARFSGSGSRTDFTLTINPVEADDVATYYCQQSNEDPRTFGGGTKLEIK , report its measured koff. 0.00025

Given the entry 12C9.E5 (antibody, V domains shown, Purified murine mAb from a hybridoma subclone) VH: EVQLQESGAELVRPGASVKLSCKASGYIFTDYEIHWVKQTPVHGLEWIGAIDPETGITAYSQKFKGKATLTTDTSSSTAYMEFRSLTSEDSAVYYCTRGGLLYWGQGTSVTVSS VL: DVVMTQTPLSLSVTIGQPASISCKSSQSLLYSDGETYLNWLQQRPGQSPKRLMYQVSKLDPGIPDRFSGSGSETDFTLKISRVEAEDLGIYYCLQGTFYPHTFGGGTKLEIK , report its measured koff. 0.00063

Given the entry 4A4.A3 (antibody, V domains shown, Purified murine mAb from a hybridoma subclone) VH: QVTLKESGPGILQPSQTLSLTCSFSGFSLTTYGMGVGWIRQPSGKGLEWLANIWFNDNKYYNSTLKSRLTISKDTSNNQVFLKISSVDTTDTATYYCAQITTVVGTFDYWGQGSPLTVSP VL: RIVMTQSPTTMAASPGEKITITCSASSSISSIYLHWYQQKPGFSPKLLIFRTSDLASGVPPRFGGSGSGTSYSLTIGTMEAEDVATYYCQQGSSFPRTFGGGTKLEIK , report its measured koff. 0.00082

Next:
Given the entry 4H2.E3 (antibody, V domains shown, Purified murine mAb from a hybridoma subclone) VH: EVQLQESGPELVKPGASVKMSCKASGYTFTSYLMHWMKQKPGQGLEWIGYINPYSDGIKYNEKFRDKATLTSDKSSNTAYMELSSLTSEDSAVYYCAHSSGYVGYAMDYWGQGTSVTVSS VL: GIVMTQTTPSVPVTPGESVSISCRSSKSLLHSNGNTYLYWFLQRPGQSPQLLIYRMSNLASGVPDRFSGSGSGTTFTLRISRVEAEDVGVYYCMQHLEYPFTFGSGTKLEIK , report its measured koff. 0.001

Given the entry 14A5.E8 (antibody, V domains shown, Purified murine mAb from a hybridoma subclone) VH: EVQLQESGAELVQPGASVRLSCKASGYTFTSYWINWVKQRPGQGLEWIGNIYPGSSIINYNENFKNRATLTVDTSSSTAYMQLSSLTSDDSAVYYCARRVVYLYFDYWGQGTTLTVSS VL: QIVLTQSPAIMSASPGEKVTMTCSASSSVSYMHWYQQKSGTSPKRWIYDTSKLASGVPARFSGSGSGTSYSLTISSMEAEDAATYYCQQWTSKSPTFGGGTKLEIK , report its measured koff. 0.0019
